MEASURED PROPERTY: melting point

Problem: I would be grateful if you could share the reported melting point for CN(CCCC1(c2ccc(F)cc2)OCc2cc(C#N)ccc21)CCc1cccc2c1OCCO2.O=C(O)C(=O)O (stereo not shown) .
Result: 118 to 120 °C

Problem: Item: CN(CCCc1cccc2c1OCCO2)CCCC1(c2ccc(F)cc2)OCc2cc(C#N)ccc21.O=C(O)C(=O)O (single isomer, unassigned; (+))
Result: 114 to 116 °C

Problem: Item: CN(CCCc1cccc2c1OCCO2)CCCC1(c2ccc(F)cc2)OCc2cc(F)ccc21.O=C(O)C(=O)O (stereo not shown)
Result: 131 to 133 °C

Now take the following compound into account.
Problem: I would be grateful if you could share the reported melting point for CN(CCCC1(c2ccc(F)cc2)OCc2cc(C#N)ccc21)Cc1cccc2c1OCCO2.O=C(O)C(=O)O (stereo not shown) .
Result: 160 to 162 °C

###

ASSAY TARGET: cloned human 5-HT1A receptors (Homo sapiens, UniProt P08908)
Construct: expressed in transfected cells; host or cells: HeLa cells (HA7), stably transfected; cell homogenate
Sequence (P08908 whole entry): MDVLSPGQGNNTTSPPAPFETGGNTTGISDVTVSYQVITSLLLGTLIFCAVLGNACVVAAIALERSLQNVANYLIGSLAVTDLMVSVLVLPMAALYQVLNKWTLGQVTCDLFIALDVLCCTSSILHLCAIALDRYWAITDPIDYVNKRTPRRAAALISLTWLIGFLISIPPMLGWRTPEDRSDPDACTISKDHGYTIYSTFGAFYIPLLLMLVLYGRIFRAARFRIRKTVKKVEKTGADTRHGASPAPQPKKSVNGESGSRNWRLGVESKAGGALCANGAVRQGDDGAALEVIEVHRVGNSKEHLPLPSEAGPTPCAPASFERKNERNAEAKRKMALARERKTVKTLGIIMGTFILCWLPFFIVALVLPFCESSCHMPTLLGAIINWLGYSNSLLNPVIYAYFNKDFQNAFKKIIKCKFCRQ
PROCEDURE SUMMARY: Inhibition of 3H-5-CT binding to human 5-HT1A receptors
STUDY CONDITIONS: cloned human 5-HT1A receptors expressed in HeLa cells (HA7)
MEASURED PROPERTY: pIC50
Units for pIC50: none; it is -log10 of a concentration expressed in mol/L.

Solved cases below.
Problem: I would be grateful if you could share the reported pIC50 for CN(CCCC1(c2ccc(F)cc2)OCc2cc(C#N)ccc21)CCc1c[nH]c2ccccc12 (stereo not drawn) .
Result: 7.64

Problem: Item: CN(CCCc1c[nH]c2ccc(Br)cc12)CCCC1(c2ccc(F)cc2)OCc2cc(C#N)ccc21 (stereo not drawn) [Compound 12aa]
Result: 7.80

Problem: Item: N#Cc1ccc2c(c1)COC2(CCCN1CCN(c2ccc3[nH]ccc3c2)CC1)c1ccc(F)cc1 (stereo not drawn)
Result: 7.82

Problem: Item: CN(CCCc1c[nH]c2ccccc12)CCCC1(c2ccccc2)OCc2ccccc21 (stereo not drawn)
Result: 7.40

Problem: Item: Cc1ccc2[nH]cc(CCN(CCCC3(c4ccc(F)cc4)OCc4cc(C#N)ccc43)CCOc3ccccc3)c2c1 (stereo not drawn) [Compound 13q]
Result: 7.92

Further cases:
Problem: I would be grateful if you could share the reported pIC50 for C=CCN(CCCC1(c2ccc(F)cc2)OCc2cc(C#N)ccc21)CCc1c[nH]c2c(C)ccc(Cl)c12 (stereo not drawn) [Compound 13j] .
Result: 7.80

Problem: Item: C=CCN(CCCC1(c2ccc(F)cc2)OCc2cc(C#N)ccc21)CCc1cccc(OC)c1 (stereo not drawn)
Result: 7.96

Problem: Item: N#Cc1ccc2c(c1)COC2(CCCN(CCCc1c[nH]c2ccc(F)cc12)CCOc1ccccc1)c1ccc(F)cc1 (stereo not drawn) [Compound 13u]
Result: 7.66

Problem: Item: CCN(CCCC1(c2ccc(F)cc2)OCc2cc(C#N)ccc21)CCc1c[nH]c2c(Cl)cccc12 (stereo not drawn) [Compound 12s]
Result: 8.11

Problem: Item: Cc1ccc2[nH]cc(CCCN(C)CCCC3(c4ccc(F)cc4)OCc4cc(F)ccc43)c2c1 (stereo not drawn) [Compound 12c]
Result: 7.72

Problem: Item: C=CCN(CCCOc1ccccc1OC)CCCC1(c2ccc(F)cc2)OCc2cc(C#N)ccc21 (stereo not drawn)
Result: 7.85

Problem: Item: CCN(CCCC1(c2ccc(F)cc2)OCc2cc(C#N)ccc21)CCc1c[nH]c2ccc(Br)cc12 (stereo not drawn) [Compound 12ab]
Result: 7.70

Problem: Item: COc1cccc(CCN(C)CCCC2(c3ccc(F)cc3)OCc3cc(C#N)ccc32)c1 (stereo not drawn)
Result: 7.20

Problem: Item: CN(CCCc1cccc2c1OCCO2)CCCC1(c2ccc(F)cc2)OCc2ccccc21 (stereo not drawn)
Result: 7.39

Problem: Item: CN(CCCc1c[nH]c2ccc(F)cc12)CCCC1(c2ccc(F)cc2)OCc2cc(C#N)ccc21 (stereo not drawn) [Compound 12i]
Result: 7.57
